Entry source: patent US9375411B2

EXPERIMENT: Repeat dose oral capsule or intravenous infusion, tissue concentrations and ratios
Type: in vivo, Male Beagle Dogs
STUDY CONDITIONS: male, dog, muscle, 4 mg/kg/day; Beagle dogs; IV dosing; Day 1; read-out: Muscle AUClast
METRIC NAME: AUC(0-t) (µM·h)
Answers are plain numbers, in µM·h.

[in] Give the measured AUC(0-t) for N=C(N)c1ccc(OCCCCCOc2ccc(C(=N)N)cc2)cc1
[out] 786

====

EXPERIMENT: Repeat dose oral capsule or intravenous infusion, tissue concentrations and ratios
Type: in vivo, Male Beagle Dogs
STUDY CONDITIONS: male, dog, skin, 4 mg/kg/day; Beagle dogs; IV dosing; Day 1; read-out: Skin AUClast
METRIC NAME: AUC(0-t)
Kindly report the value followed by its unit.

[in] Give the measured AUC(0-t) for N=C(N)c1ccc(OCCCCCOc2ccc(C(=N)N)cc2)cc1
[out] 235 µM·h

====

EXPERIMENT: Repeat dose oral capsule or intravenous infusion pharmacokinetics in blood
Type: in vivo, Male Beagle Dogs
STUDY CONDITIONS: male, Beagle, dog, iv, 4 mg/kg/day, Beagle dogs, 2-h IV 4 mg/kg/day, Day 1, individual animals and Mean, read-out: Vz
METRIC NAME: Vd (L/kg)
Answers are plain numbers, in L/kg.

[in] Give the measured Vd for N=C(N)c1ccc(OCCCCCOc2ccc(C(=N)N)cc2)cc1
[out] 32.5

====

EXPERIMENT: Repeat dose oral capsule or intravenous infusion, tissue concentrations and ratios
Format: in vivo, Male Beagle Dogs
STUDY CONDITIONS: male, Beagle, dog, pancreas/blood, intravenous, Beagle dogs; summary (group mean); Group 1 IV, Groups 2-4 oral capsules; read-out: Tissue-to-blood ratio Pancreas
METRIC NAME: Kp

[in] Give the measured Kp for N=C(N)c1ccc(OCCCCCOc2ccc(C(=N)N)cc2)cc1 [pentamidine]
[out] 58.4

====

EXPERIMENT: in vivo
STUDY CONDITIONS: female, Fox Chase SCID CB17, mouse, oral
METRIC NAME: bioavailability

[in] Give the measured bioavailability for N=C(N)c1ccc(OCCCCCOc2ccc(C(=N)N)cc2)cc1 [pentamidine]
[out] ~1%

====

EXPERIMENT: Repeat dose oral capsule or intravenous infusion pharmacokinetics in blood
Type: in vivo, Male Beagle Dogs
STUDY CONDITIONS: male, Beagle, dog, iv, 4 mg/kg/day, Beagle dogs, 2-h IV 4 mg/kg/day, Day 1, individual animals and Mean
METRIC NAME: half-life (h)
Give bare numbers, in h.

[in] Give the measured half-life for N=C(N)c1ccc(OCCCCCOc2ccc(C(=N)N)cc2)cc1
[out] 47

====

EXPERIMENT: Repeat dose oral capsule or intravenous infusion, tissue concentrations and ratios
Assay type: in vivo, Male Beagle Dogs
STUDY CONDITIONS: male, beagle, dog, brain / blood, iv, Beagle dogs; intravenous dosing; individual animals and mean; read-out: Tissue-to-blood ratio Brain
METRIC NAME: Kp
Answers are plain numbers.

[in] Give the measured Kp for N=C(N)c1ccc(OCCCCCOc2ccc(C(=N)N)cc2)cc1
[out] 4.13

====

EXPERIMENT: Oral bioavailability and biodistribution of pentamidine salts
STUDY CONDITIONS: mice; oral 200 mg/kg; blood; listed as Isethionate salt, 200 mg/kg
METRIC NAME: Cmax (µM)
Give bare numbers, in µM.

[in] Give the measured Cmax for N=C(N)c1ccc(OCCCCCOc2ccc(C(=N)N)cc2)cc1 [pentamidine]
[out] 3.06

====

EXPERIMENT: Repeat dose oral capsule or intravenous infusion, tissue concentrations and ratios
Assay type: in vivo, Male Beagle Dogs
STUDY CONDITIONS: male, dog, muscle, 4 mg/kg/day; Beagle dogs; IV dosing; Day 1; read-out: Muscle Cmax
Description: Pharmacokinetics Study in Male Beagle Dogs. Three oral formulations were tested. In this example, the pharmacokinetics and biodistribution are studied in Male Beagle Dogs. The Dog is a relevant model since the elimination rate from the different organs, mainly the liver, are closer to that observed in man. Three oral formulations were tested and compared to the injectable formulation: […]
METRIC NAME: Cmax (µM)
One number for each entry, in µM.

[in] Give the measured Cmax for N=C(N)c1ccc(OCCCCCOc2ccc(C(=N)N)cc2)cc1
[out] 6.1

====

EXPERIMENT: Repeat dose oral capsule or intravenous infusion, tissue concentrations and ratios
Type: in vivo, Male Beagle Dogs
STUDY CONDITIONS: male, dog, liver, 4 mg/kg/day; Beagle dogs; IV dosing; Day 1; read-out: Liver Tmax
Procedure: Pharmacokinetics Study in Male Beagle Dogs. Three oral formulations were tested. In this example, the pharmacokinetics and biodistribution are studied in Male Beagle Dogs. The Dog is a relevant model since the elimination rate from the different organs, mainly the liver, are closer to that observed in man. Three oral formulations were tested and compared to the injectable formulation: […]
METRIC NAME: Tmax (h)
One number for each entry, in h.

[in] Give the measured Tmax for N=C(N)c1ccc(OCCCCCOc2ccc(C(=N)N)cc2)cc1
[out] 168

====

EXPERIMENT: Repeat dose oral capsule or intravenous infusion, tissue concentrations and ratios
Assay type: in vivo, Male Beagle Dogs
STUDY CONDITIONS: male, Beagle, dog, liver/blood, iv, 4 mg/kg/day, Beagle dogs; IV; *Based on AUC; read-out: Tissue-to-blood ratio Liver, based on AUC
METRIC NAME: Kp
Answers are plain numbers.

[in] Give the measured Kp for N=C(N)c1ccc(OCCCCCOc2ccc(C(=N)N)cc2)cc1
[out] 922

====

EXPERIMENT: Repeat dose oral capsule or intravenous infusion pharmacokinetics in blood
Type: in vivo, Male Beagle Dogs
STUDY CONDITIONS: male, dog, Beagle dogs, 2-h IV 4 mg/kg/day, Day 1, individual animals and Mean
Procedure: Pharmacokinetics Study in Male Beagle Dogs. Three oral formulations were tested. In this example, the pharmacokinetics and biodistribution are studied in Male Beagle Dogs. The Dog is a relevant model since the elimination rate from the different organs, mainly the liver, are closer to that observed in man. Three oral formulations were tested and compared to the injectable formulation: […]
METRIC NAME: Cmax (nM)
One number for each entry, in nM.

[in] Give the measured Cmax for N=C(N)c1ccc(OCCCCCOc2ccc(C(=N)N)cc2)cc1 [pentamidine]
[out] 1040

====

EXPERIMENT: Repeat dose oral capsule or intravenous infusion, tissue concentrations and ratios
Type: in vivo, Male Beagle Dogs
STUDY CONDITIONS: male, beagle, dog, pancreas / blood, iv, Beagle dogs; intravenous dosing; individual animals and mean; read-out: Tissue-to-blood ratio Pancreas
METRIC NAME: Kp
Answers are plain numbers.

[in] Give the measured Kp for N=C(N)c1ccc(OCCCCCOc2ccc(C(=N)N)cc2)cc1 [pentamidine]
[out] 38

====

EXPERIMENT: Repeat dose oral capsule or intravenous infusion, tissue concentrations and ratios
Type: in vivo, Male Beagle Dogs
STUDY CONDITIONS: male, beagle, dog, kidney / blood, iv, Beagle dogs; intravenous dosing; individual animals and mean; read-out: Tissue-to-blood ratio Kidney
METRIC NAME: Kp
Give bare numbers.

[in] Give the measured Kp for N=C(N)c1ccc(OCCCCCOc2ccc(C(=N)N)cc2)cc1 [pentamidine]
[out] 370

====

EXPERIMENT: Repeat dose oral capsule or intravenous infusion, tissue concentrations and ratios
Type: in vivo, Male Beagle Dogs
STUDY CONDITIONS: male, dog, muscle, 4 mg/kg/day; Beagle dogs; IV dosing; Day 1; read-out: Muscle Tmax
METRIC NAME: Tmax (h)
Numbers only, in h.

[in] Give the measured Tmax for N=C(N)c1ccc(OCCCCCOc2ccc(C(=N)N)cc2)cc1
[out] 168

====

EXPERIMENT: Repeat dose oral capsule or intravenous infusion, tissue concentrations and ratios
Format: in vivo, Male Beagle Dogs
STUDY CONDITIONS: male, Beagle, dog, skin/blood, intravenous, Beagle dogs; summary (group mean); Group 1 IV, Groups 2-4 oral capsules; read-out: Tissue-to-blood ratio Skin
METRIC NAME: Kp
Answers are plain numbers.

[in] Give the measured Kp for N=C(N)c1ccc(OCCCCCOc2ccc(C(=N)N)cc2)cc1
[out] 14.4
